# Tested on: HL-60
# Protocol Description: NCI tumour cell line growth inhibition, 48 h
Active and inactive are the calls of the source. Rule as the data show it: active = GI50 up to about 1.1 µM and inactive = higher.
Select the correct class. Options are YES (active), NO (inactive) and nothing else.

Consider the following illustrative entries.
COC1=CC(=O)C[C@@H](C)[C@]12Oc1c(Cl)c(OC)cc(OC)c1C2=O: NO
CC(C)c1ccc(O)c(Cc2cc(C(C)C)cc(Cc3cc(C(C)C)ccc3O)c2O)c1: NO
CCOC(=O)C(NC(=O)c1ccccc1)(N1CCN(c2cc3c(cc2F)c(=O)c(C(=O)O)cn3C2CC2)CC1)C(F)(F)F (stereo unspecified): NO
O=C(/C=C1\NC(=O)c2ccccc2N1)c1ccncc1: NO
CC(C)(C)C(=O)C(Cc1ccccc1)C(=O)C(C)(C)C: NO
Cn1c2ccccc2c2c(-c3ccccc3)[n+]3ccccc3nc21: NO
O=[N+]([O-])c1cccc2nc3ccccc3c(NCCCCCNc3c4ccccc4nc4cccc([N+](=O)[O-])c34)c12: YES
O=C1NC(O)CCN1C1OC(CO)C(O)C1O (stereo unspecified): NO
O=C(O)c1c(Br)c(Br)c(Br)c(Br)c1C1c2ccc(O)cc2Oc2cc(O)ccc21: YES
CCOC(=O)C1=C(N2CCCC2)NC(=O)CC1=O: NO

What classification did CCO[C@@]1(COCc2ccccc2)OC(=O)C[C@@H]1N1C(=O)OC[C@@H]1c1ccccc1 end up with in this test?
NO

What classification did O=S(=O)(c1ccc(-c2nnc(-c3ccc(F)cc3)o2)cc1)c1ccc(-c2nnc(-c3ccc(F)cc3)o2)cc1 end up with in this test?
NO

What classification did CC1=CC=C2c3ccccc3C=CN2C(=O)C1 end up with in this test?
NO

What classification did COc1cc2c(c(O)c1O)-c1ccc(OC)c(=O)cc1C(NC(C)=O)CC2 (stereo unspecified) end up with in this test?
NO

What classification did CCOC(=O)C12CCCC1(O)N(NC(N)=O)C(C)=C2C(=O)OC (stereo unspecified) end up with in this test?
NO

What classification did CC(NC(=O)C1(N)CCCC1)C(=O)O (stereo unspecified) end up with in this test?
NO

What classification did Nc1ccc2nc(Nc3ccc(F)cc3)cnc2c1 end up with in this test?
NO

What classification did Cc1c(C(=O)c2ccccc2)[n+]([O-])c2cc(Cl)c(Cl)cc2[n+]1[O-] end up with in this test?
NO
